Test system: GLXMAW (Soybean, Williams)
procedure-details: Postemergence herbicidal evaluation
Assay type: in vivo, Glycine max, (L.) Merr. cv Williams
condition-summary: postemergence, rate 0.0625 kg/ha
Reported Herbicidal rating GLXMAW values for the following compounds.
measurement-name: Herbicidal rating GLXMAW

INSERT INTO assay_data (compound, assay_target, meas_value) VALUES
  ('CC(C)S(=O)(=O)NC(=O)CC1SC(=Nc2cc(-n3c(=O)cc(C(F)(F)F)n(C)c3=O)c(F)cc2Cl)N(C)C1=O (stereo not shown) [Compound 119]', 'GLXMAW (Soybean, Williams)', 8.5),
  ('CCOC(=O)CN1C(=O)C(OC)SC1=Nc1cc(-n2c(=O)cc(C(F)(F)F)n(C)c2=O)c(F)cc1Cl (stereo not shown) [Compound 160]', 'GLXMAW (Soybean, Williams)', 7.0),
  ('C=C1SC(=Nc2cc(-n3c(=O)cc(C(F)(F)F)n(C)c3=O)c(F)cc2Cl)N(CC(=O)OCC)C1=O [Compound 154]', 'GLXMAW (Soybean, Williams)', 7.5),
  ('CC(C)N1C(=O)CSC1=Nc1cc(-n2c(=O)cc(C(F)(F)F)n(C)c2=O)c(F)cc1Cl [Compound 164]', 'GLXMAW (Soybean, Williams)', 7.0),
  ('CCOC(=O)CN1C(=O)C(Br)SC1=Nc1cc(-n2c(=O)cc(C(F)(F)F)n(C)c2=O)c(F)cc1Cl (stereo not shown) [Compound 153]', 'GLXMAW (Soybean, Williams)', 4.0),
  ('Cn1c(C(F)(F)F)cc(=O)n(-c2cc(N=C3SCC(=O)N3C3CCC3)c(Cl)cc2F)c1=O [Compound 168]', 'GLXMAW (Soybean, Williams)', 7.0),
  ('Cn1c(C(F)(F)F)cc(=O)n(-c2cc(N=C3SCC(=O)N3Cc3cccnc3)c(Cl)cc2F)c1=O [Compound 132]', 'GLXMAW (Soybean, Williams)', 6.0);

====

Reported CYPSE herbicidal effect rating values for the following compounds.
Tested on: CYPSE (Flatsedge)
procedure-details: Preemergence weed control under flooded paddy conditions
Type: in vivo, Cyperus serotinus
condition-summary: 0.1250 kg/ha, rated 3-4 weeks after treatment
measurement-name: CYPSE herbicidal effect rating

INSERT INTO measurements (compound, measurement_name, meas_value) VALUES
  ('CCOC(=O)CN1C(=O)C(CC(=O)NO)S/C1=N/c1cc(-n2c(=O)cc(C(F)(F)F)n(C)c2=O)c(F)cc1Cl (stereo not drawn) [Compound 98]', 'CYPSE herbicidal effect rating', 4.0),
  ('CCOC(=O)CN1C(=O)C(CC(=O)NOC)SC1=Nc1cc(-n2c(=O)cc(C(F)(F)F)n(C)c2=O)c(F)cc1Cl (stereo not drawn) [Compound 83]', 'CYPSE herbicidal effect rating', 3.0),
  ('CCOC(=O)[C@H](Cc1ccccc1)N1C(=O)CSC1=Nc1cc(-n2c(=O)cc(C(F)(F)F)n(C)c2=O)c(F)cc1Cl [Compound 80]', 'CYPSE herbicidal effect rating', 3.0);

====

Tested on: ABUTH (Velvetleaf)
procedure-details: Preemergence herbicidal evaluation
Type: in vivo, Abutilon theophrasti
condition-summary: rate 0.0625 kg/ha; rated 4-5 weeks after treatment; rating scale 0-9
Reported Preemergence herbicidal rating ABUTH values for the following compounds.
measurement-name: Preemergence herbicidal rating ABUTH

INSERT INTO assay_data (smiles_record, meas_value) VALUES
  ('Cn1c(C(F)(F)F)cc(=O)n(-c2cc(N=C3SCC(=O)N3Cc3ccccn3)c(Cl)cc2F)c1=O', 0.0),
  ('COc1cc(CN2C(=O)CSC2=Nc2cc(-n3c(=O)cc(C(F)(F)F)n(C)c3=O)c(F)cc2Cl)cc(OC)c1OC', 0.0),
  ('Cn1c(C(F)(F)F)cc(=O)n(-c2cc(N=C3SCC(=O)N3Cc3ccc(C(F)(F)F)cc3)c(Cl)cc2F)c1=O', 0.0),
  ('CN(C)c1ccc(CN2C(=O)CSC2=Nc2cc(-n3c(=O)cc(C(F)(F)F)n(C)c3=O)c(F)cc2Cl)cc1', 0.0);
